SYSTEM_NAME: Alpha-synuclein (Homo sapiens)
TEST_DESCRIPTION: Inhibition of alpha-synuclein (unknown origin) oligomer formation assessed as reduction in cross linking at 100 uM preincubated with compound followed by Ru(BPY3) addition and measured after 1 sec light irradiation by coomassie blue staining based PICUP assay
Activity calls are given as the source filed them. The rule behind the calls is not given here.
Outcomes: t = active, f = inactive

> print(dat)
                             smiles.notation                     system.name  class
 1  O=C(O)c1ccc(N2C(=O)/C(=C/c3csc4ccccc34)SC2=S)cc1O  Alpha-synuclein (Homo sapiens)      f
 2  O=C(O)c1ccc(N2C(=O)/C(=C/c3coc4ccccc34)SC2=S)cc1O  Alpha-synuclein (Homo sapiens)      f
 3  O=C(O)CN1C(=O)/C(=C/c2cc3ccccc3[nH]2)SC1=S  Alpha-synuclein (Homo sapiens)      t
 4  O=C(O)CCN1C(=O)/C(=C/c2ccc3ccccc3n2)SC1=S  Alpha-synuclein (Homo sapiens)      f
 5  O=C(O)c1ccc(N2C(=O)/C(=C/c3ccc4ccccc4n3)SC2=S)cc1  Alpha-synuclein (Homo sapiens)      f
 6   O=C(O)CN1C(=O)/C(=C/c2csc3ccccc23)SC1=S  Alpha-synuclein (Homo sapiens)      f
 7  COc1ccc2c(/C=C3\SC(=S)N(CCC(=O)O)C3=O)c[nH]c2c1  Alpha-synuclein (Homo sapiens)      f
 8  O=C(O)CCN1C(=O)/C(=C/c2coc3ccccc23)SC1=S  Alpha-synuclein (Homo sapiens)      f
 9  O=C(O)CN1C(=O)/C(=C/c2c[nH]c3ccccc23)SC1=S  Alpha-synuclein (Homo sapiens)      t
10  O=C(O)c1ccc(N2C(=O)/C(=C/c3c[nH]c4ccccc34)SC2=S)cc1O  Alpha-synuclein (Homo sapiens)      f
11  O=C(O)c1ccc(N2C(=O)/C(=C/c3nc4ccccc4s3)SC2=S)cc1O  Alpha-synuclein (Homo sapiens)      f
12   O=C(O)CN1C(=O)/C(=C/c2coc3ccccc23)SC1=S  Alpha-synuclein (Homo sapiens)      f
13  O=C(O)c1ccc(N2C(=O)/C(=C/c3c[nH]c4ccccc34)SC2=S)cc1  Alpha-synuclein (Homo sapiens)      t
14  O=C(O)CCN1C(=O)/C(=C/c2cccc3cc[nH]c23)SC1=S  Alpha-synuclein (Homo sapiens)      t
15  COc1ccc2c(/C=C3\SC(=S)N(CC(=O)O)C3=O)c[nH]c2c1  Alpha-synuclein (Homo sapiens)      t
16  O=C(O)CCN1C(=O)/C(=C/c2cc3ccccc3[nH]2)SC1=S  Alpha-synuclein (Homo sapiens)      t
17  O=C(O)c1ccc(N2C(=O)/C(=C/c3coc4ccccc34)SC2=S)cc1  Alpha-synuclein (Homo sapiens)      f
18  O=C(O)CN1C(=O)/C(=C/c2cn(CCO)c3ccccc23)SC1=S  Alpha-synuclein (Homo sapiens)      t
19  O=C(O)CCN1C(=O)/C(=C/c2c[nH]c3ccccc23)SC1=S  Alpha-synuclein (Homo sapiens)      t
20  O=C(O)c1ccc(N2C(=O)/C(=C/c3csc4ccccc34)SC2=S)cc1  Alpha-synuclein (Homo sapiens)      f
21  O=C(O)CN1C(=O)/C(=C/c2ccc3ccccc3n2)SC1=S  Alpha-synuclein (Homo sapiens)      f
22  O=C(O)CN1C(=O)/C(=C/c2cccc3cc[nH]c23)SC1=S  Alpha-synuclein (Homo sapiens)      t

====

SYSTEM_NAME: Alpha-synuclein (Homo sapiens, UniProt P37840)
TEST_DESCRIPTION: Inhibition of recombinant alpha-synuclein (unknown origin) fibril formation assessed as thioflavin T fluorescence intensity at 100 uM measured every 20 mins by Thioflavin T fluorescence assay (reference value: 100 %)
Reported Flu intensity by item:
OUTCOME_MEASURE: Flu intensity (%)

> print(dat)
                             smiles.notation  outcome.measure  qualifier.sign  measured.number
 1  O=C(O)CCN1C(=O)/C(=C/c2nc3ccccc3s2)SC1=S    Flu intensity               =             12.1
 2  O=C(O)CN1C(=O)/C(=C/c2cc3ccccc3[nH]2)SC1=S    Flu intensity               =              0.1
 3  O=C(O)CCN1C(=O)/C(=C/c2ccc3ccccc3n2)SC1=S    Flu intensity               =               25
 4  O=C(O)CN1C(=O)/C(=C/c2cccc3cc[nH]c23)SC1=S    Flu intensity               =             15.1
 5  O=C(O)CCN1C(=O)/C(=C/c2c[nH]c3ccccc23)SC1=S    Flu intensity               =              1.9
 6   O=C(O)CN1C(=O)/C(=C/c2csc3ccccc23)SC1=S    Flu intensity               =              3.2
 7  O=C(O)CN1C(=O)/C(=C/c2ccc3ccccc3n2)SC1=S    Flu intensity               =              5.4
 8  O=C(O)c1ccc(N2C(=O)/C(=C/c3csc4ccccc34)SC2=S)cc1    Flu intensity               =             70.4
 9  O=C(O)c1ccc(N2C(=O)/C(=C/c3c[nH]c4ccccc34)SC2=S)cc1    Flu intensity               =             14.9
10  O=C(O)c1ccc(N2C(=O)/C(=C/c3coc4ccccc34)SC2=S)cc1    Flu intensity               =             15.3
11  O=C(O)CCN1C(=O)/C(=C/c2coc3ccccc23)SC1=S    Flu intensity               =             31.8
12  O=C(O)c1ccc(N2C(=O)/C(=C/c3nc4ccccc4s3)SC2=S)cc1    Flu intensity               =             31.8
13   O=C(O)CN1C(=O)/C(=C/c2nc3ccccc3s2)SC1=S    Flu intensity               =              0.8
14  O=C(O)CN1C(=O)/C(=C/c2cn(CCO)c3ccccc23)SC1=S    Flu intensity               =               27
15  O=C(O)CCN1C(=O)/C(=C/c2cc3ccccc3[nH]2)SC1=S    Flu intensity               =              0.5
16  O=C(O)c1ccc(N2C(=O)/C(=C/c3nc4ccccc4s3)SC2=S)cc1O    Flu intensity               =               25
17  COc1ccc2c(/C=C3\SC(=S)N(CC(=O)O)C3=O)c[nH]c2c1    Flu intensity               =              1.9
18  O=C(O)c1ccc(N2C(=O)/C(=C/c3coc4ccccc34)SC2=S)cc1O    Flu intensity               =             29.1
19  O=C(O)CCN1C(=O)/C(=C/c2csc3ccccc23)SC1=S    Flu intensity               =            -0.05
20  O=C(O)CN1C(=O)/C(=C/c2c[nH]c3ccccc23)SC1=S    Flu intensity               =             10.1
21  O=C(O)c1ccc(N2C(=O)/C(=C/c3ccc4ccccc4n3)SC2=S)cc1O    Flu intensity               >              100
22  O=C(O)c1ccc(N2C(=O)/C(=C/c3ccc4ccccc4n3)SC2=S)cc1    Flu intensity               =             84.3
23   O=C(O)CN1C(=O)/C(=C/c2coc3ccccc23)SC1=S    Flu intensity               =             24.7
24  O=C(O)c1ccc(N2C(=O)/C(=C/c3c[nH]c4ccccc34)SC2=S)cc1O    Flu intensity               =              8.9
25  COc1ccc2c(/C=C3\SC(=S)N(CCC(=O)O)C3=O)c[nH]c2c1    Flu intensity               >              100
26  O=C(O)c1ccc(N2C(=O)/C(=C/c3csc4ccccc34)SC2=S)cc1O    Flu intensity               =             56.7
27  O=C(O)CCN1C(=O)/C(=C/c2cccc3cc[nH]c23)SC1=S    Flu intensity               =             14.7
